TGT: RBMXL2 (Homo sapiens, UniProt O75526)
Sequence (O75526 1-110): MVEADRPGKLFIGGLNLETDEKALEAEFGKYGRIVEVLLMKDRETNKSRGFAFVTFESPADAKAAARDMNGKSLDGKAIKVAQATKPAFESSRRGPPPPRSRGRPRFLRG
ASSAY SUMMARY: protein domain microarray probed with biotinylated miRNA; Domain array: 20 mM Tris-HCl pH 7.4, 200 mM KCl, 0.2 mM EDTA, 0.05% NP40, 2 ug/ul heparin, overnight 4 C. ORF array: PBS pH 7.0 with RNase inhibitor, 100 ng RNA; high values mean tight binding
CONDITION PARAMETERS: ssRNA
Reported binding signal values are given for each entry in this list.

- RESIDUES: "AGAGGUAGUAGGUUGCAUAGUU"
  binding signal (fluorescence intensity): 2570
- RESIDUES: "UGAGGUAGUAGGUUGUAUAGUU"
  binding signal (fluorescence intensity): 867
- RESIDUES: "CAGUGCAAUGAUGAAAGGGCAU"
  binding signal (fluorescence intensity): 1800
- RESIDUES: "UGAGGUAGUAGGUUGUAUGGUU"
  binding signal (fluorescence intensity): 1440

====

TGT: KHDRBS1 (Homo sapiens)
Sequence (Q07666 85-210): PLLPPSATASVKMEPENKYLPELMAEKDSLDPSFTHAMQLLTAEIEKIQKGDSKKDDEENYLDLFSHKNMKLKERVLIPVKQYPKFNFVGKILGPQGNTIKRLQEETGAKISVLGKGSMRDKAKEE
ASSAY SUMMARY: protein domain microarray probed with biotinylated miRNA; Domain array: 20 mM Tris-HCl pH 7.4, 200 mM KCl, 0.2 mM EDTA, 0.05% NP40, 2 ug/ul heparin, overnight 4 C. ORF array: PBS pH 7.0 with RNase inhibitor, 100 ng RNA; high values mean tight binding
CONDITION PARAMETERS: ssRNA
MEASUREMENT NAME: binding signal (fluorescence intensity)

- RESIDUES: "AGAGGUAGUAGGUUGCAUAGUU"
  NUMBER: 21.6
- RESIDUES: "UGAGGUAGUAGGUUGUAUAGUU"
  NUMBER: 22.6
- RESIDUES: "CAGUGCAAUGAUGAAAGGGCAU"
  NUMBER: 25.1
- RESIDUES: "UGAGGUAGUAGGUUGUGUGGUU"
  NUMBER: 28.3
- RESIDUES: "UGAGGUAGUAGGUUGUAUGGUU"
  NUMBER: 25.6

====

TGT: CELF4(1-2) (Homo sapiens, UniProt Q9BZC1)
Sequence (Q9BZC1 31-250): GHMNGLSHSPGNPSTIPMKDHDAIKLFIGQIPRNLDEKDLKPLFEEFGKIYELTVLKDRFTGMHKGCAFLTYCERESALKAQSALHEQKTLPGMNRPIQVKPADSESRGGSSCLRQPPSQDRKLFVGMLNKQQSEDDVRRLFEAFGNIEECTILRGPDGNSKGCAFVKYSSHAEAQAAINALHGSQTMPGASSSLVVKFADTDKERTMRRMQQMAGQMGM
ASSAY SUMMARY: protein domain microarray probed with biotinylated miRNA; Domain array: 20 mM Tris-HCl pH 7.4, 200 mM KCl, 0.2 mM EDTA, 0.05% NP40, 2 ug/ul heparin, overnight 4 C. ORF array: PBS pH 7.0 with RNase inhibitor, 100 ng RNA; high values mean tight binding
CONDITION PARAMETERS: ssRNA
MEASUREMENT NAME: binding signal (fluorescence intensity)

- RESIDUES: "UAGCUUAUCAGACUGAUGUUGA"
  MEASUREMENT NAME: "binding signal"
  NUMBER: 20.5
- RESIDUES: "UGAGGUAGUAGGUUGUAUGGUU"
  MEASUREMENT NAME: "binding signal"
  NUMBER: 96
- RESIDUES: "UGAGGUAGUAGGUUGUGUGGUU"
  MEASUREMENT NAME: "binding signal"
  NUMBER: 241
- RESIDUES: "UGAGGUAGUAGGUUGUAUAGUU"
  MEASUREMENT NAME: "binding signal"
  NUMBER: 30.5

====

TGT: ROD1(3-4) (Homo sapiens, UniProt O95758)
Sequence (O95758 340-552): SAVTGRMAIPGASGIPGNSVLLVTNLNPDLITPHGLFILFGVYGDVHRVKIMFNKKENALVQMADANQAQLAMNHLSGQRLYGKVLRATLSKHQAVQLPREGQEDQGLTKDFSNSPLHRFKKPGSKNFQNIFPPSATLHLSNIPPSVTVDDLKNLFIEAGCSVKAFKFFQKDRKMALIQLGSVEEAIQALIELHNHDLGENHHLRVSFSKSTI
ASSAY SUMMARY: protein domain microarray probed with biotinylated miRNA; Domain array: 20 mM Tris-HCl pH 7.4, 200 mM KCl, 0.2 mM EDTA, 0.05% NP40, 2 ug/ul heparin, overnight 4 C. ORF array: PBS pH 7.0 with RNase inhibitor, 100 ng RNA; high values mean tight binding
CONDITION PARAMETERS: ssRNA
Reported binding signal values are given for each entry in this list.
MEASUREMENT NAME: binding signal (fluorescence intensity)

- RESIDUES: "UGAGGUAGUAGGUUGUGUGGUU"
  MEASUREMENT NAME: "binding signal"
  UNIT OF MEASURE: "fluorescence intensity"
  NUMBER: 569
- RESIDUES: "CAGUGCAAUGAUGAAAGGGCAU"
  MEASUREMENT NAME: "binding signal"
  UNIT OF MEASURE: "fluorescence intensity"
  NUMBER: 241
- RESIDUES: "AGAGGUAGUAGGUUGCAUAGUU"
  MEASUREMENT NAME: "binding signal"
  UNIT OF MEASURE: "fluorescence intensity"
  NUMBER: 331
- RESIDUES: "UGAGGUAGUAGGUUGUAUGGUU"
  MEASUREMENT NAME: "binding signal"
  UNIT OF MEASURE: "fluorescence intensity"
  NUMBER: 385
